Record form. Attribute: pKd. Fill in for each entry.
- Target under test: T1, CH2-4 constant domains of human IgE linked to a transmembrane protein, on 293 cells (human, UniProt P01854-1 104-428)
- T1 construct: domain: CH2-4 constant domains; also called human IgE-expressing 293 cells
- T1 sequence (P01854 other isoform, or with tags, fused parts or gaps): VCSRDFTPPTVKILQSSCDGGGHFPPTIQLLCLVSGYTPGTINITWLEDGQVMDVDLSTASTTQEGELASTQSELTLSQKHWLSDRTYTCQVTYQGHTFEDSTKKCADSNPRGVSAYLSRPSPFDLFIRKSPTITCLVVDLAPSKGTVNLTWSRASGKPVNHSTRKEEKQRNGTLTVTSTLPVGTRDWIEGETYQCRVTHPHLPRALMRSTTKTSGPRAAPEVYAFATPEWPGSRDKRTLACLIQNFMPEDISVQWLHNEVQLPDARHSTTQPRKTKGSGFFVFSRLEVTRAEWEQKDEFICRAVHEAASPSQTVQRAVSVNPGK
- Assay text: flow cytometry, 293 cells expressing human IgE CH2-4
API: returns pKd as number; meaning -log10 of concentration in mol/L.

Kindly note the recorded pKd for B10-NNT (Fc fusion, monomeric; also called parental B10 monomeric VHH-hIgG1-Fc fusion (Fc NNT)) VHH-Fc: EVQLVQSGGELVQAGGSLRLSCVASGLTFSSYNMGWLRQAPGKEREFVGMSGSSSTSTYYADSVKGRFTISRDNSKNTVYLQMNSLKPEDTAVYYCAARRMLSTYWSDRSWDFWGQGTQVTVKPGGPSVFLFPPKPKDTLMISRTPEVTCVVVDVSHEDPEVKFNWYVDGVEVHNAKTKPREEQYNSTYRVVSVLTVLHQDWLNGKEYKCKVSNKALPAPIEKTISKAKGQPREPQVYTLPPSRDELTKNQVNLTCLVKGFYPSDIAVEWESNGQPENNYKTTPPVLDSDGSFFLNSTLTVDKSRWQQGNVFSCSVMHEALHNHYTQKSLSLSPGK , which is 8.74

Kindly note the recorded pKd for hzB10v3-NNT (Fc fusion, monomeric) VHH-Fc: EVQLVQSGGELVQAGGSLRLSCVASGLTFSSYNMGWVRQAPGKEREFVGMSGSSSTSTYYADSVKGRFTISRDNSKNTVYLQMNSLKPEDTAVYYCAARRMLSTYWSDRSWDFWGQGTQVTVKPGGPSVFLFPPKPKDTLMISRTPEVTCVVVDVSHEDPEVKFNWYVDGVEVHNAKTKPREEQYNSTYRVVSVLTVLHQDWLNGKEYKCKVSNKALPAPIEKTISKAKGQPREPQVYTLPPSRDELTKNQVNLTCLVKGFYPSDIAVEWESNGQPENNYKTTPPVLDSDGSFFLNSTLTVDKSRWQQGNVFSCSVMHEALHNHYTQKSLSLSPGK , which is 6.47

Kindly note the recorded pKd for hzB10v6-NNT (Fc fusion, monomeric) VHH-Fc: EVQLVQSGGELVQAGGSLRLSCVASGLTFSSYNMGWLRQAPGKEREFVGMSGSSSTSTYYADSVKGRFTISRDNSKNTVYLQMNSLKPEDTAVYYCAARRMLSTYWSDRSWDFWGQGTQVTVRPGGPSVFLFPPKPKDTLMISRTPEVTCVVVDVSHEDPEVKFNWYVDGVEVHNAKTKPREEQYNSTYRVVSVLTVLHQDWLNGKEYKCKVSNKALPAPIEKTISKAKGQPREPQVYTLPPSRDELTKNQVNLTCLVKGFYPSDIAVEWESNGQPENNYKTTPPVLDSDGSFFLNSTLTVDKSRWQQGNVFSCSVMHEALHNHYTQKSLSLSPGK , which is 8.71

Kindly note the recorded pKd for Anti-IgE sdAb B10 (parental B10 VHH, dimeric VHH-hIgG1-Fc xELL fusion) (Fc fusion) EVQLVQSGGELVQAGGSLRLSCVASGLTFSSYNMGWLRQAPGKEREFVGMSGSSSTSTYYADSVKGRFTISRDNSKNTVYLQMNSLKPEDTAVYYCAARRMLSTYWSDRSWDFWGQGTQVTVKPDKTHTCPPCPAPGGPSVFLFPPKPKDTLMISRTPEVTCVVVDVSHEDPEVKFNWYVDGVEVHNAKTKPREEQYNSTYRVVSVLTVLHQDWLNGKEYKCKVSNKALPAPIEKTISKAKGQPREPQVYTLPPSRDELTKNQVSLTCLVKGFYPSDIAVEWESNGQPENNYKTTPPVLDSDGSFFLYSKLTVDKSRWQQGNVFSCSVMHEALHNHYTQKSLSLSPGK , which is 9.05
